Experiment: pH stability: half-lives for P—N bond hydrolysis of model linkers
Type: physicochemical
Conditions: pH 6.5
Could you please report measured ½ Lives for P—N Bond Hydrolysis, pH 6.5 for the items listed next?
One number for each entry, in hr.

| Compound | Recorded Result |
| --- | --- |
| O=P(O)(NCCc1ccccc1)OCCCc1ccccn1 [Entry H41] | 24.1 |
| CN(CCc1ccccc1)P(=O)(O)OCCCc1ccccn1 [Entry H43] | 3.85 |
| Cc1ccc(C(=O)NC(COP(=O)(O)NCCc2ccccc2)C(=O)O)cc1 (centres unmarked) [Entry H157] | 1.93 |

Okay, now this compound:
## Task Return value of ½ Lives for P—N Bond Hydrolysis, pH 6.5 for input O=P(O)(NCCc1ccccc1)OCCc1ccccn1 [Entry H119] , no commentary.
## Result 0.32

###

Test: pH stability: half-lives for P—N bond hydrolysis of model linkers
Format: physicochemical
Conditions: pH 5.5
Property Measured: ½ Lives for P—N Bond Hydrolysis, pH 5.5 (hr)
Give bare numbers, in hr.

Lab note: each compound below needs its ½ Lives for P—N Bond Hydrolysis, pH 5.5 filled in.
1. O=P(O)(NCCc1ccccc1)OCCc1ccccn1 [Entry H119]
2. Cc1ccc(C(=O)NC(COP(=O)(O)Nc2ccccc2)C(=O)O)cc1 (centres unmarked) [Entry H159]
3. CN(CCc1ccccc1)P(=O)(O)OCCCc1ccccn1 [Entry H43]
4. CN(CCc1ccccc1)P(=O)(O)OCCc1cccnc1 [Entry H99]

## Result
1: 0.13; 2: 19.25; 3: 1.2; 4: 3.2

###

Assay: pH stability: half-lives for P—N bond hydrolysis of model linkers
Assay type: physicochemical
Conditions: pH 5.5
Property Measured: ½ Lives for P—N Bond Hydrolysis, pH 5.5

The following compounds have reported results that may help.
| Compound | ½ Lives for P—N Bond Hydrolysis, pH 5.5 |
| --- | --- |
| CN(c1ccccc1)P(=O)(O)OCc1ccccc1C(=O)O [Entry I11] | 14.4 min |
| CN(CCc1ccccc1)P(=O)(O)OCCCc1cccnc1 [Entry H9] | 3.2 hr |
| CN(c1ccccc1)P(=O)(O)OCCc1cccnc1 [Entry H105] | 9.6 hr |
| Cc1ccc(C(=O)NC(CCOP(=O)(O)N(C)CCc2ccccc2)C(=O)O)cc1 (centres unmarked) [Entry H179] | 9.62 hr |

## Task In one line, give reported ½ Lives for P—N Bond Hydrolysis, pH 5.5 of the entry O=P(O)(Nc1ccccc1)OCCc1ccccn1 [Entry H85] .
## Result 0.96 hr

###

Assay: pH stability: half-lives for P—N bond hydrolysis of model linkers
Assay type: physicochemical
Conditions: pH 7.4
Property Measured: ½ Lives for P—N Bond Hydrolysis, pH 7.4 (hr)
Numbers only, in hr.

| Compound | ½ Lives for P—N Bond Hydrolysis, pH 7.4 [hr] |
| --- | --- |
| CN(c1ccccc1)P(=O)(O)OCc1ccccc1C(=O)O [Entry I11] | 6.42 |
| Cc1ccc(C(=O)NC(COP(=O)(O)N(C)c2ccccc2)C(=O)O)cc1 (centres unmarked) [Entry H161] | 6.42 |

## Task Quote ½ Lives for P—N Bond Hydrolysis, pH 7.4 reported for O=P(O)(NCCc1ccccc1)OCCc1ccccn1 [Entry H119] please.
## Result 2.1

###

I'd be grateful if you could share measured ½ Lives for P—N Bond Hydrolysis, pH 6.5 for these entries.
Assay: pH stability: half-lives for P—N bond hydrolysis of model linkers
Type: physicochemical
Conditions: pH 6.5
One number for each entry, in days.

| Molecule | ½ Lives for P—N Bond Hydrolysis, pH 6.5 [days] |
| --- | --- |
| O=P(O)(NCCc1ccccc1)OCCc1cccnc1 [Entry H97] | 4 |
| O=P(O)(Nc1ccccc1)OCCCc1cccnc1 [Entry H7] | 8 |
| CN(c1ccccc1)P(=O)(O)OCCCc1cccnc1 [Entry H11] | 1.1 |

Moving on to another molecule below.
## Task For the molecule O=P(O)(Nc1ccccc1)OCCCc1ccccn1 [Entry H45] , give its reported ½ Lives for P—N Bond Hydrolysis, pH 6.5.
## Result 8

###

Would you kindly list ½ Lives for P—N Bond Hydrolysis, pH 4.5 for each of these molecules?
Test: pH stability: half-lives for P—N bond hydrolysis of model linkers
Assay type: physicochemical
Details: pH 4.5
Answers are plain numbers, in days.

| Smi | Property Measured | Recorded Result |
| --- | --- | --- |
| O=P(O)(Nc1ccccc1)OCCc1cccnc1 | ½ Lives for P—N Bond Hydrolysis, pH 4.5 | 20 |

Alright, here's another molecule for you.
## Task Supply reported ½ Lives for P—N Bond Hydrolysis, pH 4.5 belonging to this molecule: `O=P(O)(Nc1ccccc1)OCCCc1cccnc1`
## Result 133

###

Could you please report measured ½ Lives for P—N Bond Hydrolysis, pH 5.5 for the items listed next?
Assay: pH stability: half-lives for P—N bond hydrolysis of model linkers
Format: physicochemical
Conditions: pH 5.5
Give bare numbers, in min.

| Compound | ½ Lives for P—N Bond Hydrolysis, pH 5.5, min |
| --- | --- |
| Cc1ccc(C(=O)NC(COP(=O)(O)N(C)CCc2ccccc2)C(=O)O)cc1 (stereo not drawn) | 3.98 |

// next entry
## Task Find the measured ½ Lives for P—N Bond Hydrolysis, pH 5.5 of Cc1ccc(C(=O)NC(COP(=O)(O)NCCc2ccccc2)C(=O)O)cc1 (stereo not drawn) and report it.
## Result 38.5

###

Assay: pH stability: half-lives for P—N bond hydrolysis of model linkers
Assay type: physicochemical
Conditions: pH 3
Property Measured: ½ Lives for P—N Bond Hydrolysis, pH 3 (day days)
Give bare numbers, in day days.

For each of the compounds below, note its ½ Lives for P—N Bond Hydrolysis, pH 3.
1. O=P(O)(Nc1ccccc1)OCCCc1cccnc1
2. O=P(O)(Nc1ccccc1)OCCCc1ccccn1

## Result
1.6
1.6

###

Assay: pH stability: half-lives for P—N bond hydrolysis of model linkers
Format: physicochemical
Settings: pH 4.5
Property Measured: ½ Lives for P—N Bond Hydrolysis, pH 4.5 (min)
Numbers only, in min.

| Compound | Recorded Result |
| --- | --- |
| Cc1ccc(C(=O)NC(COP(=O)(O)N(C)c2ccccc2)C(=O)O)cc1 (stereo not drawn) | 0.98 |

## Task Give the reported value of ½ Lives for P—N Bond Hydrolysis, pH 4.5 for this record: Cc1ccc(C(=O)NC(COP(=O)(O)NCCc2ccccc2)C(=O)O)cc1 (stereo not drawn)
## Result 5.25
